molecular target: BRD4 BD1 protein (Homo sapiens (Human), UniProt O60885); assay: Fluorescence polarization binding affinity (Ki) with BRD4 BD1 protein; conditions: fluorescence polarization; Ki calculated from IC50
MEASURE: Ki (nM)

Past entries and their recorded results:
* Cc1nnn2c1-c1ccc(C3=CCNCC3)cc1C(Nc1cccc3[nH]ccc13)CC2 (centres unmarked) [WA78, 2,2,2-trifluoroacetate] | 281
* CCC(C)N1CC=C(c2ccc3c(c2)C(Nc2ccc(Cl)cc2)CCn2nnc(C)c2-3)CC1 (centres unmarked) [LD17, 2,2,2-trifluoroacetate] | 616
* CCn1cc(-c2ccc3c(c2)[C@H](Nc2ccc(Cl)cc2)CCn2nnc(C)c2-3)cn1 [RE136] | 2.66
* Cc1nnn2c1-c1ccc(C3=CCN(C)CC3)cc1C(Nc1ccccc1Cl)CC2 (centres unmarked) [RD06, 2,2,2-trifluoroacetate] | 1030
* Cc1nnn2c1-c1ccc(-c3cnn(C)c3)cc1C(Nc1cccc(C(=O)O)c1)CC2 (centres unmarked) [LB97] | 355

A: Cc1nnn2c1-c1ccc(-c3cnn(C)c3)cc1C(Nc1cc(F)cc(Cl)c1)CC2 (centres unmarked) [BJ193]
B: COc1ccc(NC2CCc3onc(C)c3-c3ccc(OC)cc32)cc1 (centres unmarked) [FA01]
C: Cc1nnn2c1-c1ccc(-c3cnn(C)c3)cc1C(N(C=O)c1cccc(Cl)c1)CC2 (centres unmarked) [LC174]
D: Cc1nnn2c1-c1ccc(C3=CCN(C4CCCC4)CC3)cc1C(Nc1cccc(Cl)c1F)CC2 (centres unmarked) [RD179]
INPUT: Arrange these 4 molecules in increasing order of Ki. As an answer, provide the labels arranged in the order called for.
OUTPUT: A, B, C, D
(A: 28.3 nM, B: 169 nM, C: 949 nM, D: 2810 nM)

I: Cc1nnn2c1-c1ccc(-c3cnn(C)c3)cc1C(Nc1ccc(Cl)cc1)CC2 (centres unmarked) [RA180]
II: Cc1nnn2c1-c1ccc(-c3cncnc3)cc1C(Nc1ccc(Cl)cc1)CC2 (centres unmarked) [RB06]
III: Cc1nnn2c1-c1ccc(C3=CCN(C(C)C)CC3)cc1C(Nc1cccc(Cl)c1F)CC2 (centres unmarked) [RE29, 2,2,2-trifluoroacetate]
INPUT: Could you please sort these 3 entries by Ki from high to low? As an answer, provide the labels arranged in the order called for.
OUTPUT: III, II, I

* * *

molecular target: BRD4 BD2 protein (Homo sapiens (Human), UniProt O60885); experiment: Fluorescence polarization binding affinity (Ki) with BRD4 BD2 protein; settings: fluorescence polarization; Ki calculated from IC50
MEASURE: Ki (nM)

* CNC(=O)Cc1ccc(NC2CCn3nnc(C)c3-c3ccc(-c4cnn(C)c4)cc32)cc1 (centres unmarked) [LB142] | 11.4
* Cc1nnn2c1-c1ccc(C3=CCNCC3)cc1C(Nc1ccccc1CC#N)CC2 (centres unmarked) [RC82, 2,2,2-trifluoroacetate] | 1520
* CNC(=O)c1ccccc1NC1CCn2nnc(C)c2-c2ccc(-c3cnn(C)c3)cc21 (centres unmarked) | 13.7
* Cc1nnn2c1-c1ccc(C3=CCNCC3)cc1C(Nc1ccc(F)cc1)CC2 (centres unmarked) [BJ122, 2,2,2-trifluoroacetate] | 68.6

P: Cc1nnn2c1-c1ccc(C3=CCN(C4CCC4)CC3)cc1C(Nc1cccc(S(C)(=O)=O)c1)CC2 (centres unmarked) [BI61, 2,2,2-trifluoroacetate]
Q: Cc1nnn2c1-c1ccc(-c3ccc(NC(=O)OC(C)(C)C)cc3)cc1C(Nc1ccc(Cl)cc1)CC2 (centres unmarked)
INPUT: Hi, I'm comparing P with Q and wondering which one has the bigger number for Ki. Any idea? Reply briefly: the label of your chosen item.
OUTPUT: P

* * *

molecular target: BRD4 BD1 protein (Homo sapiens (Human)); assay: Fluorescence polarization binding affinity (Ki) with BRD4 BD1 protein; details: fluorescence polarization; Ki calculated from IC50
pKi: −log10 of the molar value.
MEASURE: pKi

Past entries and their recorded results:
- Cc1nnn2c1-c1ccc(-c3ccc(NC(=O)OC(C)(C)C)cc3)cc1C(Nc1ccc(Cl)cc1)CC2 (stereo not shown): 7.54
- Cc1nnn2c1-c1ccc(C3=CCN(C4CCC4)CC3)cc1C(Nc1cc(Cl)ccc1F)CC2 (stereo not shown) [BI26, 2,2,2-trifluoroacetate]: 6.06
- Cc1nnn2c1-c1ccc(C3=CCNCC3)cc1C(Nc1cccc(OCCO)c1)CC2 (stereo not shown) [LC56, 2,2,2-trifluoroacetate]: 5.82
- Cc1nnn2c1-c1ccc(-c3cnn(C)c3)cc1C(Nc1ccccc1CCN(C)C)CC2 (stereo not shown): 7.42
- CCN1CC=C(c2ccc3c(c2)C(Nc2cccc(Cl)c2F)CCn2nnc(C)c2-3)CC1 (stereo not shown) [RD115, 2,2,2-trifluoroacetate]: 5.95

A: CNC(=O)Cc1ccccc1NC1CCn2nnc(C)c2-c2ccc(-c3cnn(C)c3)cc21 (stereo not shown)
B: Cc1nnn2c1-c1ccc(-c3cnn(C)c3)cc1C(NC1CCCCC1)CC2 (stereo not shown) [BH46, 2,2,2-trifluoroacetate]
INPUT: Hi, I'm comparing A with B and wondering which one has the bigger number for pKi. Any idea? Reply briefly: the label of your chosen item.
OUTPUT: A
(A: 8.11, B: 6.16)

* * *

target: BRD4 BD2 protein (Homo sapiens (Human), UniProt O60885); experiment: Fluorescence polarization binding affinity (Ki) with BRD4 BD2 protein; details: fluorescence polarization; Ki calculated from IC50
MEASURE: Ki (nM)

• Cc1nnn2c1-c1ccc(C3=CCNCC3)cc1C(Nc1ccc3cc[nH]c3c1)CC2 (centres unmarked) [WA83, 2,2,2-trifluoroacetate] = 88.6

a: Cc1nnn2c1-c1ccc(-c3cnn(C)c3)cc1C(NC1CCCCC1)CC2 (centres unmarked) [BH46, 2,2,2-trifluoroacetate]
b: Cc1nnn2c1-c1ccc(-c3cnn(C)c3)cc1C(Nc1ccc(Cl)cc1)CC2C (centres unmarked)
INPUT: Hi, I'm comparing a with b and wondering which one has the bigger number for Ki. Any idea? Reply briefly: the label of your chosen item.
OUTPUT: a
(a: 907 nM, b: 9.4 nM)

* * *

biological target: BRD4 BD2 protein (Homo sapiens (Human)); test: Fluorescence polarization binding affinity (Ki) with BRD4 BD2 protein; details: fluorescence polarization; Ki calculated from IC50
pKi: −log10 of the molar value.
MEASURE: pKi

a: Cc1nnn2c1-c1ccc(-c3cnn(C)c3)cc1C(Nc1cccc3[nH]ccc13)CC2 (stereo not shown) [LB114]
b: COc1cccc(NC2CCn3nnc(C)c3-c3ccc(C4=CCN(C(C)=O)CC4)cc32)c1 (stereo not shown) [BH27]
INPUT: Between a and b , which one has the lower reported pKi value? Reply briefly: the label of your chosen item.
OUTPUT: a

* * *

molecular target: BRD4 BD1 protein (Homo sapiens (Human)); assay: Fluorescence polarization binding affinity (Ki) with BRD4 BD1 protein; conditions: fluorescence polarization; Ki calculated from IC50
pKi: −log10 of the molar value.
MEASURE: pKi

- Cc1nnn2c1-c1ccc(C3=CCN(C(C)C)CC3)cc1C(Nc1cccc(C#N)c1)CC2 (stereo not shown) [BI34, 2,2,2-trifluoroacetate]: 5.38

a: Cc1nnn2c1-c1ccc(C3=CCN(C4CCCC4)CC3)cc1C(Nc1cc(Cl)ccc1F)CC2 (stereo not shown) [BH190, 2,2,2-trifluoroacetate]
b: Cc1nnn2c1-c1ccc(-c3cnn(C)c3)cc1C(Nc1cccc(Cl)c1)CC2 (stereo not shown)
c: Cc1nnn2c1-c1ccc(-c3cnn(C)c3)cc1C(Nc1cc(C3CC3)nn1C)CC2 (stereo not shown)
d: Cc1nnn2c1-c1ccc(-c3cnn(C)c3)cc1C(Nc1cccc(N(C)C)c1)CC2 (stereo not shown)
INPUT: Could you please sort these 4 entries by pKi from high to low? As an answer, provide the labels arranged in the order called for.
OUTPUT: b, d, c, a
(b: 7.50, d: 7.12, c: 6.86, a: 5.79)

* * *

biological target: BRD4 BD1 protein (Homo sapiens (Human), UniProt O60885); experiment: Fluorescence polarization binding affinity (Ki) with BRD4 BD1 protein; settings: fluorescence polarization; Ki calculated from IC50
pKi: −log10 of the molar value.
MEASURE: pKi

Past entries and their recorded results:
- Cc1cc(NC2CCn3nnc(C)c3-c3ccc(-c4cnn(C)c4)cc32)n(C)n1 (centres unmarked) [BE114]: 7.34
- Cc1nnn2c1-c1ccc(C3=CCNCC3)cc1C(Nc1ccc(F)c(Cl)c1)CC2 (centres unmarked) [LC192, 2,2,2-trifluoroacetate]: 6.09

a: Cc1nnn2c1-c1ccc(-c3cn(C)nn3)cc1C(Nc1ccc(Cl)cc1)CC2 (centres unmarked) [RB48]
b: CCC(=O)N1CC=C(c2ccc3c(c2)C(Nc2cccc(Cl)c2)CCn2nnc(C)c2-3)CC1 (centres unmarked) [BH86]
c: Cc1nnn2c1-c1ccc(-c3cnn(C)c3)cc1C(Nc1ccccc1CC#N)CC2 (centres unmarked) [LC09]
INPUT: Arrange these 3 compounds in increasing order of pKi. As an answer, provide the labels arranged in the order called for.
OUTPUT: a, c, b

Numbers sourced from patent US12286435B2.
